# Test system: Crimean-Congo hemorrhagic fever virus L polyprotein viral ovarian tumor (vOTU) protease domain
# assay_comment: CCHFV vOTU protease inhibitors, primary screen, biochemical, Pep-AMC substrate, fluorescence (AID 651958); further: 0% = vehicle wells with enzyme and 100% = no enzyme wells
# experimental_context: at 11.5 µM, active compounds read high
Hit rate of the full screen: of about 370,000 compounds, about 2,000 (0.54%) were called active. The entries come from a sample that favours actives as a whole.
inhibition by entry:
Respond numerically; units are % and should not be typed.

// below: answered compounds
compound: Cc1cccc(OP(=O)(Oc2cccc(C)c2)OC(c2ccccc2)C(F)(F)F)c1 (configuration not stated)
measurement_name: inhibition
observed: 2.83
//
compound: CCOC(=O)c1ccc(NC(=O)c2nc[nH]c2C(=O)N[C@@H](CCCCNC(=O)OC(C)(C)C)C(=O)OC(C)(C)C)cc1
measurement_name: inhibition
observed: 29.6
//
compound: Cc1nnc(NC(=O)Cn2c(=O)sc3ccccc32)s1
measurement_name: inhibition
observed: -3.29
//
compound: CSCCC(NS(=O)(=O)c1ccc2c(c1)oc(=O)n2C)C(=O)NC1CCCc2ccccc21 (configuration not stated)
measurement_name: inhibition
observed: 7.61
//
compound: CCC(=O)N(C)C(c1ccccc1Cl)c1nnnn1-c1c(C)cccc1C (configuration not stated)
measurement_name: inhibition
observed: -4.14
//
compound: O=C(NC1=CC(=O)c2ccccc2C1=O)c1ccccc1
measurement_name: inhibition
observed: 101

Sample CC(C)(C)c1ccc(S(=O)(=O)NCC2CCN(C(=O)C(=O)c3cc4ccccc4o3)CC2)cc1 — what was its inhibition?
41.9

Sample COc1cc(CN(C)Cc2nc3cc(C(F)(F)F)ccc3c(=O)[nH]2)ccc1OC(F)F — what was its inhibition?
14.7

Sample Cc1ccc(S(=O)(=O)N(C)CC(=O)NCCc2c[nH]c3ccccc23)cc1 — what was its inhibition?
1.27

Sample Cc1cc(OCCN2CCCC2)cc(C(C)C)c1 — what was its inhibition?
-8.52

* * *

# System: Crimean-Congo hemorrhagic fever virus L polyprotein viral ovarian tumor (vOTU) protease domain
# assay_comment: CCHFV vOTU protease inhibitors, primary screen, biochemical, Pep-AMC substrate, fluorescence (AID 651958); further: 0% = vehicle wells with enzyme and 100% = no enzyme wells
# experimental_context: at 11.5 µM, active compounds read high
The whole screen tested about 370,000 compounds, of which about 2,000 (0.54%) were called active. Only a selection was taken, and actives are over-represented in it overall.
inhibition by entry:
Respond numerically; units are % and should not be typed.

structure_notation: Cc1ccn2c(c1)nc(=O)c1cc(S(=O)(=O)N3CCC(C)CC3)ccc12
inhibition / %: -11.7
--
structure_notation: CCOC(=O)N1CCC(C(N)=O)CC1
inhibition / %: 8.61
--
structure_notation: CC(=O)N(C1=C(Cl)C(=O)c2ccccc2C1=O)c1ccc(C(=O)O)cc1
inhibition / %: 99.3
--
structure_notation: COc1ccccc1CNS(=O)(=O)c1cc2c3c(c1)CCC(=O)N3CCC2
inhibition / %: 31.9

Sample CCOC(=O)N1CCC(NC(=O)Cc2cn(C)c3ccccc23)CC1 — what was its inhibition?
3.03

Sample CCOC(=O)N1CCC(c2cc(=O)n(-c3ccccc3)[nH]2)CC1 — what was its inhibition?
71.1

* * *

# System: Crimean-Congo hemorrhagic fever virus L polyprotein viral ovarian tumor (vOTU) protease domain
# assay_comment: CCHFV vOTU protease inhibitors, primary screen, biochemical, Pep-AMC substrate, fluorescence (AID 651958); further: 0% = vehicle wells with enzyme and 100% = no enzyme wells
# experimental_context: at 11.5 µM, active compounds read high
Screen size: about 370,000 compounds; about 2,000 (0.54%) were called active. The sample holds actives, similar compounds and a random draw of the others, so the mix is not that of the screen.
measurement_name: inhibition (%)
Respond numerically; units are % and should not be typed.

// below: answered molecules
molecule: CCC1=NN(C(=O)Cc2ccc([N+](=O)[O-])cc2)C(O)(c2ccc(Br)cc2)C1 (stereo not given)
inhibition (%): -9.95
--
molecule: CCn1nc(C)c(CN2CCN(Cc3ccc(OC)c(C)c3C)C(CCO)C2)c1C (stereo not given)
inhibition (%): -10.4
--
molecule: CCN(CC(=O)Nc1c(F)cccc1F)C(=O)c1ccc(-c2ccccc2)cc1
inhibition (%): -7.05
--
molecule: CNc1ccc(SC#N)cc1
inhibition (%): 7.09
--
molecule: Cc1cccc(N(C(=O)c2sc(C)nc2C)C(C(=O)NCC2CCCO2)c2ccccc2)c1 (stereo not given)
inhibition (%): -8.32

Sample CCN(C[C@H]1N[C@@](CC)(C(=O)OC)[C@H]2C(=O)N(Cc3ccccc3)C(=O)[C@@H]12)S(=O)(=O)c1ccccc1 — what was its inhibition?
6.5

Sample CN1CCN(Cc2nc3cc(NC(=O)COc4ccc([N+](=O)[O-])cc4)ccc3n2C)CC1 — what was its inhibition?
33.6

Sample Cc1cc(C(=O)N/N=C/c2ccc(O)c([N+](=O)[O-])c2)c(C)n1-c1ccc(F)cc1 — what was its inhibition?
45.6

Sample NNC(=O)c1cccc(COCC(F)(F)C(F)F)c1 — what was its inhibition?
-1.18

* * *

# Tested on: Crimean-Congo hemorrhagic fever virus L polyprotein viral ovarian tumor (vOTU) protease domain
# assay_comment: CCHFV vOTU protease inhibitors, primary screen, biochemical, Pep-AMC substrate, fluorescence (AID 651958); further: 0% = vehicle wells with enzyme and 100% = no enzyme wells
# experimental_context: at 11.5 µM, active compounds read high
Among all 370,000 compounds or so, about 2,000 (0.54%) were called active. The full list was thinned out, with actives kept by preference.
measurement_name: inhibition (%)
Respond numerically; units are % and should not be typed.

// below: answered compounds
compound: CN1CCN(C(=O)C2=C[C@H](c3ccc4c(c3)OCO4)C[C@H](OCc3ccc(CO)cc3)O2)CC1
inhibition / %: -2.44

compound: COc1cccc(CNC(=O)COC(=O)CN2C(=O)NC3(CCCCC3C)C2=O)c1 (configuration not stated)
inhibition / %: -7.15

Sample COCCCN(C(=S)Nc1c(C)cc(C)cc1C)C(C)c1ccncc1 (configuration not stated) — what was its inhibition?
-6.09

Sample CCCc1ccc(C(=O)COC(=O)CN2C(=O)NC3(CCCCC3C)C2=O)cc1 (configuration not stated) — what was its inhibition?
16.5

Sample CCC1(C)Cc2c(sc3nnn(CC(=O)Nc4ccc(Cl)cc4)c(=O)c23)CO1 (configuration not stated) — what was its inhibition?
-1.67

Sample O=C1Nc2cc(C(=O)N3CCN(c4ccc(F)cc4)CC3)ccc2NC1CSCc1cccc(F)c1 (configuration not stated) — what was its inhibition?
32.1

Sample CCN(N=Nc1nonc1OC)c1nonc1OC — what was its inhibition?
-2.47

Sample COc1ccc(NC(=O)NN2CCN(C)CC2)c(OC)c1 — what was its inhibition?
4.34

Sample CCCSc1nc(NCc2ccco2)c2c3c(sc2n1)COC(C)(CC)C3 (configuration not stated) — what was its inhibition?
30.9

Sample COCc1[nH][nH]c(=O)c1C=Nc1ccc(F)cc1F — what was its inhibition?
4.69

Sample Cc1ccccc1CN1CCN(C(=O)c2cccc(F)c2)CC1 — what was its inhibition?
6.94

Sample CN1CCc2c(sc3c2c(NCc2ccco2)nc2nnnn23)C1 — what was its inhibition?
-25.3

* * *

inhibition by entry:
# Test system: Crimean-Congo hemorrhagic fever virus L polyprotein viral ovarian tumor (vOTU) protease domain
# assay_comment: CCHFV vOTU protease inhibitors, primary screen, biochemical, Pep-AMC substrate, fluorescence (AID 651958); further: 0% = vehicle wells with enzyme and 100% = no enzyme wells
# experimental_context: at 11.5 µM, active compounds read high
Hit rate of the full screen: of about 370,000 compounds, about 2,000 (0.54%) were called active. This is one part of a sample in which actives are shown more often than they occur.
Respond numerically; units are % and should not be typed.

compound: COC(=O)Cc1ccc(OC2(C)CCN(Cc3ccc4c(c3)OCCO4)C2)cc1 (stereo not given)
inhibition, %: 0.88
--
compound: Cc1ccc(C)c(NC(=O)c2cc(-c3cc(C)cc(C)c3O)n[nH]2)c1
inhibition, %: -1.49
--
compound: COc1ccc(C(=O)N2CCN(c3ccc(C(C)=O)cc3F)CC2)cc1S(=O)(=O)NC1CC1
inhibition, %: 12.2
--
compound: CC(C)CN1CCC1(C)C(=O)Nc1ccc(OC(F)F)cc1 (stereo not given)
inhibition, %: 15.4

Sample CCCCN(CC(=O)Nc1cccc(S(=O)(=O)N2CCCC2)c1)Cc1nc2ccccc2c(=O)[nH]1 — what was its inhibition?
3.14

Sample CC(C)NC(=O)C1(C)CCCCN1Cc1cccc(C(F)(F)F)c1 (stereo not given) — what was its inhibition?
0.49

* * *

# Test system: Crimean-Congo hemorrhagic fever virus L polyprotein viral ovarian tumor (vOTU) protease domain
# assay_comment: CCHFV vOTU protease inhibitors, primary screen, biochemical, Pep-AMC substrate, fluorescence (AID 651958); further: 0% = vehicle wells with enzyme and 100% = no enzyme wells
# experimental_context: at 11.5 µM, active compounds read high
Among all 370,000 compounds or so, about 2,000 (0.54%) were called active. The entries come from a sample that favours actives as a whole.
inhibition by entry:

compound: Cc1noc(C)c1C(=O)OCC(=O)N1CCN(S(=O)(=O)c2ccc3ccccc3c2)CC1
inhibition: 4.27% (inactive)
//
compound: CC(C)c1ccc(Nc2ncccc2C#N)cc1
inhibition: 7.01% (inactive)
//
compound: COc1ccc(NC(=O)C[C@H]2C(=O)N(CCc3ccccc3)C[C@@H]2C)cc1
inhibition: 29.5% (active)
//
compound: O=C(NCCc1ccc(Cl)cc1Cl)c1cc([N+](=O)[O-])c[nH]c1=O
inhibition: 30.7% (active)
//
compound: O=C(NC1CCCCC1)N1CCc2[nH]c3ccccc3c2C1
inhibition: 58.5% (active)
//
compound: O=C(Nc1cccc(S(=O)(=O)N2CCCCC2)c1)c1ccc2c(c1)OCO2
inhibition: 30.3% (active)

Sample Cc1ccccc1-n1c(SCC(=O)Nc2cccc3ccccc23)nc(O)cc1=O — what was its inhibition?
32.7% (active)

Sample COc1cc(Cl)c(C)cc1NC(=O)[C@@H]1CCCN1C(=O)c1cccs1 — what was its inhibition?
-1.68% (inactive)

Sample Cc1ccnc(NS(=O)(=O)c2ccc(NC(=O)c3ccc(S(=O)(=O)N(C)C)cc3)cc2)n1 — what was its inhibition?
-12.8% (inactive)

Sample O=C(Cn1cnc2c(OCc3ccccc3)ncnc21)NCc1nc2ccccc2[nH]1 — what was its inhibition?
-9.89% (inactive)

Sample CN1CCN(c2ccncc2S(=O)(=O)N2CCCC2)CC1 — what was its inhibition?
-8.15% (inactive)

Sample Cc1ccnc(NS(=O)(=O)c2ccc(NC(=O)c3oc4ccccc4c3C)cc2)n1 — what was its inhibition?
29.9% (active)

Sample O=C(Nc1cccc(S(=O)(=O)N2CCCC2)c1)c1cncc(Br)c1 — what was its inhibition?
6.4% (inactive)
